Target: TNFα / TNFα receptor (TNFα R1/Fc) (Homo sapiens, UniProt P01375)
Construct: purchased R&D Systems
Sequence (P01375 77-233 limits assumed, species assumed): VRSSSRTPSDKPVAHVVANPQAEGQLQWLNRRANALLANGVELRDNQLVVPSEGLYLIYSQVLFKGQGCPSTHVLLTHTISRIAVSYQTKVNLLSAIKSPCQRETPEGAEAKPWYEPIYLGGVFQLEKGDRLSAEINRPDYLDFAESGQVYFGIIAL
Experiment: Inhibition of binding of TNFα to the TNFα receptor (plate ELISA competition)
Settings: Table 2; read-out: Activity (IC50, inhibition of TNFα binding to TNFα R1/Fc)
Description: The compounds listed in Table 2 below were assayed for ability to inhibit binding of TNFα to the TNFα receptor (TNFα R1/Fc). The assays were performed as described in the following procedure: TNFα (R&D Systems) was coated on high binding plate wells (Corning 96-well) at a single uniform concentration of 15 nM, 100 μL/well in PBS. […] The TMB reaction was stopped with the addition of 0.5N HCl and then the plate was read for absorbance at 450 nm.
Numbered stars: 1 amine (or outer) side, 2 acyl side, 3 side chain; on linkers, the order of the positions; unused ones are H or OH. Bridge positions count the residues as written; N and C are the ends. Square brackets hold non-standard residues; d marks the D form. Peptide text beside a SMILES is read from it. Tartaroyl(2R,3R-(OAc)2) = CC(=O)O[C@@H](C(=O)[*:1])[C@@H](OC(C)=O)C(=O)[*:2]; Bip = N[C@@H](Cc1ccc(-c2ccccc2)cc1)C(=O)O; dPhe(4-NH2) = Nc1ccc(C[C@@H](N)C(=O)O)cc1; Nip(3R) = O=C([C@@H]1CCCN([*:1])C1)[*:2]; Phe(4-Br) = N[C@@H](Cc1ccc(Br)cc1)C(=O)O; Phe(4-NH2) = Nc1ccc(C[C@H](N)C(=O)O)cc1; d2Thi = N[C@H](Cc1cccs1)C(=O)O; Suc = O=C(CCC(=O)[*:2])[*:1]
# IC50 per record follows

Past entries and their recorded results:
O=C1COc2ccc(cc2)C[C@H](C(=O)O)NC(=O)[C@H](CCc2ccccc2)NC(=O)[C@@H](Cc2ccc(-c3ccccc3)cc2)NC(=O)[C@H](Cc2c[nH]c3ccccc23)N1; < 10 µM
CC(C)(C)OC(=O)C[C@H](NC(=O)[C@@H]1Cc2ccc(cc2)OCC(=O)N[C@@H](Cc2cccs2)C(=O)N[C@H](Cc2ccc(-c3ccccc3)cc2)C(=O)N[C@@H](Cc2ccccc2)C(=O)N1)C(=O)O; > 100 µM
O=C1COc2ccc(cc2)C[C@@H](C(=O)N[C@H](CCc2ccccc2)C(=O)O)NC(=O)[C@H](Cc2ccccc2F)NC(=O)[C@@H](Cc2ccc(-c3ccccc3)cc2)NC(=O)[C@H](Cc2c[nH]c3ccccc23)N1; < 10 µM
O=C(O)CCCNC(=O)[C@@H]1Cc2ccc(cc2)OCC(=O)N[C@@H](Cc2ccncc2)C(=O)N[C@H](Cc2ccc(-c3ccccc3)cc2)C(=O)N[C@@H](Cc2c[nH]c3ccccc23)C(=O)N1; < 10 µM
O=C1COc2ccc(cc2)C[C@@H](C(=O)O)NC(=O)[C@H](CCc2ccccc2)NC(=O)[C@@H](Cc2ccc(-c3ccccc3)cc2)NC(=O)[C@H](Cc2ccc(-c3ccc(F)cc3)cc2)N1; < 10 µM
CC(=O)O[C@H]1C(=O)Nc2ccc(cc2)C[C@H](C(=O)N[C@@H](Cc2ccccc2)C(=O)O)NC(=O)[C@@H](Cc2ccccc2)NC(=O)[C@H](Cc2ccc(Br)cc2)NC(=O)[C@@H](Cc2cccs2)NC(=O)[C@@H]1OC(C)=O [Compound 410] ([d2Thi][Phe(4-Br)][dF][dPhe(4-NH2)]F-OH; linker N-4 via Tartaroyl(2R,3R-(OAc)2)); < 10 µM
O=C1COc2ccc(cc2)C[C@@H](C(=O)O)NC(=O)[C@H](Cc2ccc(-c3ccccn3)cc2)NC(=O)[C@@H](Cc2ccc(-c3ccccc3)cc2)NC(=O)[C@H](Cc2cccs2)N1; < 10 µM
O=C1CCC(=O)N[C@H](Cc2cccs2)C(=O)N[C@@H](Cc2ccc(-c3ccccc3)cc2)C(=O)N[C@H](Cc2ccccc2)C(=O)N[C@H](C(=O)N2CCC[C@@H](C(=O)O)C2)Cc2ccc(cc2)N1 [Compound 38] ([d2Thi][Bip][dF][Phe(4-NH2)]-{Nip(3R)}; linker N-4 via Suc); 30 to 100 µM

API: the following record is the query input.
Need IC50, item O=C1COc2ccc(cc2)C[C@@H](C(=O)O)NC(=O)[C@H](Cc2ccccc2)NC(=O)[C@@H](Cc2ccc(-c3ccccc3)cc2)NC(=O)[C@H](Cc2ccncc2)N1
< 10 µM
